Test system: MCF-7
Assay: cells
Conditions: Homo sapiens, MCF7, 48 h, read-out: Cell growth (%) MCF-7
activity at 10 µM below 80% gives Not met; activity at 10 µM at or above it gives Met.

N#C[Se]c1ccc(NC(=O)c2ccc(C(F)(F)F)cc2)cc1 | Not met

Confirm if activity at 10 µM reported for the compound "Cc1ccc(OP(=O)(Nc2ccc([Se]C#N)cc2)Oc2ccc(C)cc2)cc1" is 80% or above.
Not met

Please indicate if the recorded activity at 10 µM for "COc1ccc(C(=O)Nc2ccc([Se]C#N)cc2)cc1" meets or exceeds 80%.
Met

Test whether the compound "O=C(Nc1ccc([Se][Se]c2ccc(NC(=O)c3ccc([N+](=O)[O-])cc3)cc2)cc1)c1ccc([N+](=O)[O-])cc1" records activity at 10 µM of 80% or higher.
Not met

Does "O=C(Nc1ccc([Se][Se]c2ccc(NC(=O)c3ccno3)cc2)cc1)c1ccno1" have a reported activity at 10 µM of at least 80%?
Met

====

System: PC-3
Test: cells
Format: cell-based
Settings: Homo sapiens, PC-3; 48 h, average ± SEM; read-out: TGI PC-3
# note: boundary value 30 µM maps to class 0; IC (TGI) below it maps to class 1

Observe how each entry below is paired with its result.
O=C(Nc1ccc([Se][Se]c2ccc(NC(=O)c3ccc([N+](=O)[O-])cc3)cc2)cc1)c1ccc([N+](=O)[O-])cc1 [I.1e] | class 1
N#C[Se]c1ccc(NC(=O)c2ccc(C(F)(F)F)cc2)cc1 [I.2f] | class 0

Could you please tell me whether IC (TGI) recorded for O=C(Nc1ccc([Se][Se]c2ccc(NC(=O)c3ccc(C(F)(F)F)cc3)cc2)cc1)c1ccc(C(F)(F)F)cc1 [I.1f] is less than 30 µM?
class 0

Would you kindly verify if IC (TGI) of N#C[Se]c1ccc(NC(=O)c2ccco2)cc1 [I.2h] is strictly less than 30 µM?
class 0

====

Tested on: MCF-7
Assay: cells
Settings: Homo sapiens, MCF7, 48 h, read-out: Cell growth (%) MCF-7
activity at 10 µM overview
Expressed in %, but write only the number.

Solved cases below.
Cc1ccc(C(=O)Nc2ccc([Se]C#N)cc2)cc1 [I.2g] | 70.4
O=C(/C=C/c1ccccc1)Nc1ccc([Se][Se]c2ccc(NC(=O)/C=C/c3ccccc3)cc2)cc1 [I.1l] | 76.7
O=C(Nc1ccc([Se][Se]c2ccc(NC(=O)c3ccco3)cc2)cc1)c1ccco1 [I.1h] | 63.5
N#C[Se]c1ccc(NC(=O)C23CC4CC(CC(C4)C2)C3)cc1 [I.2k] | 113
N#C[Se]c1ccc(NC(=O)c2ccc(C#N)cc2)cc1 [I.2d] | 74.3

API: the following record is the query input.
API: value(readout=activity at 10 µM, system=MCF-7) for record CCOP(=O)(Nc1ccc([Se][Se]c2ccc(NP(=O)(OCC)OCC)cc2)cc1)OCC [II.1d]
-57.5

====

System: CCRF-CEM
Test: cells
Settings: Homo sapiens, 48 h, read-out: TGI CCRF-CEM
Tag: TRUE if measured IC (TGI) is not below 30 µM, FALSE if it is.

Form field: IC (TGI) at least 30 µM? Entry: "N#C[Se]c1ccc(NC(=O)c2ccc([N+](=O)[O-])cc2)cc1"
TRUE

====

Attribute: LC50 (50% lethal concentration) at 48 h
Assay: MTT cytotoxicity in nonmalignant mammary gland derived cells
Assay type: cell-based
Conditions: human
Field format: number, assumed µM, no unit text.

Looking for the measured LC50 (50% lethal concentration) at 48 h of O=C(Nc1ccc([Se][Se]c2ccc(NC(=O)c3ccc([N+](=O)[O-])cc3)cc2)cc1)c1ccc([N+](=O)[O-])cc1 [I.1e] , can you help?
68.2

Please look up its LC50 (50% lethal concentration) at 48 h: O=C(Nc1ccc([Se][Se]c2ccc(NC(=O)c3ccc(C(F)(F)F)cc3)cc2)cc1)c1ccc(C(F)(F)F)cc1 [I.1f]
92.3

Bench note: what LC50 (50% lethal concentration) at 48 h did O=C(Nc1ccc([Se][Se]c2ccc(NC(=O)c3ccco3)cc2)cc1)c1ccco1 [I.1h] show?
74.4

====

System: BEAS-2B
Assay: MTT cytotoxicity in nonmalignant bronchial epithelium cells
Type: cell-based
Details: Homo sapiens, BEAS-2B; nonmalignant cells, 48 h; read-out: GI50 BEAS-2B
PROPERTY: GI50 (µM)
Give just the number in µM; leave the unit off.

Known results for compounds:
COP(=O)(Nc1ccc([Se][Se]c2ccc(NP(=O)(OC)OC)cc2)cc1)OC [II.1b] | 6.48
O=C(Nc1ccc([Se][Se]c2ccc(NC(=O)c3ccc([N+](=O)[O-])cc3)cc2)cc1)c1ccc([N+](=O)[O-])cc1 [I.1e] | 0.42

GI50 lookup needed for O=C(Nc1ccc([Se][Se]c2ccc(NC(=O)c3ccc(Cl)cc3)cc2)cc1)c1ccc(Cl)cc1 [I.1b] , thanks.
1.11

Give the measured GI50 of N#C[Se]c1ccc(NC(=O)c2ccco2)cc1 [I.2h] .
8.47

// returns reported GI50 for input CCOP(=O)(Nc1ccc([Se][Se]c2ccc(NP(=O)(OCC)OCC)cc2)cc1)OCC [II.1d]
5.43

Suppose we examine the compound N#C[Se]c1ccc(NC(=O)c2ccc(C(F)(F)F)cc2)cc1 [I.2f] ; what GI50 value has been reported?
20.8

Any idea what GI50 was measured for O=C(Nc1ccc([Se][Se]c2ccc(NC(=O)c3ccc(C(F)(F)F)cc3)cc2)cc1)c1ccc(C(F)(F)F)cc1 [I.1f] ?
10.7

Recorded GI50 of O=C(Nc1ccc([Se][Se]c2ccc(NC(=O)c3ccco3)cc2)cc1)c1ccco1 [I.1h] , please.
10.6

====

Tested on: HT-29
Test: cells
Details: Homo sapiens, HT-29, 48 h, read-out: Cell growth (%) HT-29
// classify(record): look up activity at 10 µM in ranges low bin: < 50%; mid bin: ≥ 50% and < 80%; high bin: ≥ 80%

Answered cases to consult:
CSc1ccc(C(=O)Nc2ccc([Se]C#N)cc2)cc1 [I.2n] | high bin
N#C[Se]c1ccc(NC(=O)c2ccc(C(F)(F)F)cc2)cc1 [I.2f] | low bin
CCOP(=O)(Nc1ccc([Se][Se]c2ccc(NP(=O)(OCC)OCC)cc2)cc1)OCC [II.1d] | low bin
N#C[Se]c1ccc(NC(=O)/C=C/c2ccccc2)cc1 [I.2l] | mid bin
CCOP(=O)(Nc1ccc([Se]C#N)cc1)OCC [II.2d] | low bin
O=C(Nc1ccc([Se][Se]c2ccc(NC(=O)c3ccccc3)cc2)cc1)c1ccccc1 [I.1a] | high bin
N#C[Se]c1ccc(NC(=O)c2ccc([N+](=O)[O-])cc2)cc1 [I.2e] | low bin
N#C[Se]c1ccc(NP(=O)(Nc2ccccc2)Oc2ccccc2)cc1 (centres unmarked) [II.2f] | mid bin
N#C[Se]c1ccc(NC(=O)c2ccc(C#N)cc2)cc1 [I.2d] | high bin
O=P(Nc1ccc([Se][Se]c2ccc(NP(=O)(Oc3ccccc3)Oc3ccccc3)cc2)cc1)(Oc1ccccc1)Oc1ccccc1 [II.1c] | high bin

Which activity at 10 µM category applies to O=C(Nc1ccc([Se][Se]c2ccc(NC(=O)C34CC5CC(CC(C5)C3)C4)cc2)cc1)C12CC3CC(CC(C3)C1)C2 [I.1k] here?
high bin

Entry N#C[Se]c1ccc(NC(=O)c2ccc(Cl)cc2)cc1 [I.2b] belongs to which category?
mid bin

====

System: HT-29
Assay: cells
Conditions: Homo sapiens, HT-29, 48 h, read-out: Cell growth (%) HT-29
Given measured activity at 10 µM, output TRUE if it is greater than or equal to 90% and FALSE if not.

activity at 10 µM >= 90% for "N#Cc1ccc(C(=O)Nc2ccc([Se][Se]c3ccc(NC(=O)c4ccc(C#N)cc4)cc3)cc2)cc1" ?
TRUE

Entry "O=C(Nc1ccc([Se][Se]c2ccc(NC(=O)c3ccc(C(F)(F)F)cc3)cc2)cc1)c1ccc(C(F)(F)F)cc1" : is its activity at 10 µM no less than 90%?
FALSE

# bool: activity at 10 µM of "O=C(/C=C/c1ccccc1)Nc1ccc([Se][Se]c2ccc(NC(=O)/C=C/c3ccccc3)cc2)cc1" >= 90%
TRUE

Is reported activity at 10 µM greater than or equal to 90% here: O=P(Nc1ccccc1)(Nc1ccc([Se][Se]c2ccc(NP(=O)(Nc3ccccc3)Oc3ccccc3)cc2)cc1)Oc1ccccc1 (centres unmarked)
TRUE

Hi, just wondering whether "N#C[Se]c1ccc(NC(=O)C23CC4CC(CC(C4)C2)C3)cc1" shows activity at 10 µM of 90% or higher.
TRUE

Dear colleague, could you confirm whether "COc1ccc(C(=O)Nc2ccc([Se][Se]c3ccc(NC(=O)c4ccc(OC)cc4)cc3)cc2)cc1" has activity at 10 µM at or above 90%?
FALSE

Threshold query (activity at 10 µM >= 90%) on "N#C[Se]c1ccc(NP(=O)(Oc2ccccc2)Oc2ccccc2)cc1"
TRUE

Please tell me: is the compound "N#C[Se]c1ccc(NC(=O)c2ccco2)cc1" at or over 90% in terms of activity at 10 µM?
FALSE

Has "N#C[Se]c1ccc(NC(=O)c2ccccc2)cc1" a recorded activity at 10 µM greater than or equal to 90%?
FALSE

Is activity at 10 µM at least 90%? Consider "O=C(Nc1ccc([Se][Se]c2ccc(NC(=O)c3ccc(Cl)cc3)cc2)cc1)c1ccc(Cl)cc1"
FALSE

Does the compound "O=C(Nc1ccc([Se][Se]c2ccc(NC(=O)c3ccco3)cc2)cc1)c1ccco1" have recorded activity at 10 µM that is 90% or more?
FALSE

Identify whether the reported activity at 10 µM of the following compound is 90% or greater: "Cc1ccc(OP(=O)(Nc2ccc([Se]C#N)cc2)Oc2ccc(C)cc2)cc1"
TRUE

Does "N#C[Se]c1ccc(NC(=O)c2cccs2)cc1" have a reported activity at 10 µM of at least 90%?
FALSE

hey, is activity at 10 µM for this one >= 90%? "O=C(Nc1ccc([Se][Se]c2ccc(NC(=O)c3ccno3)cc2)cc1)c1ccno1"
TRUE

Record "Cc1ccc(OP(=O)(Nc2ccc([Se][Se]c3ccc(NP(=O)(Oc4ccc(C)cc4)Oc4ccc(C)cc4)cc3)cc2)Oc2ccc(C)cc2)cc1" ; criterion: activity at 10 µM no lower than 90%. Met?
TRUE

Decide: is the reported value of activity at 10 µM for "Cc1ccc(C(=O)Nc2ccc([Se]C#N)cc2)cc1" equal to or greater than 90%?
TRUE

activity at 10 µM >= 90% for "Cc1ccc(C(=O)Nc2ccc([Se][Se]c3ccc(NC(=O)c4ccc(C)cc4)cc3)cc2)cc1" ?
TRUE
